- Tested Target: UniProtKB Q99572
- Sequence (Q99572 whole entry): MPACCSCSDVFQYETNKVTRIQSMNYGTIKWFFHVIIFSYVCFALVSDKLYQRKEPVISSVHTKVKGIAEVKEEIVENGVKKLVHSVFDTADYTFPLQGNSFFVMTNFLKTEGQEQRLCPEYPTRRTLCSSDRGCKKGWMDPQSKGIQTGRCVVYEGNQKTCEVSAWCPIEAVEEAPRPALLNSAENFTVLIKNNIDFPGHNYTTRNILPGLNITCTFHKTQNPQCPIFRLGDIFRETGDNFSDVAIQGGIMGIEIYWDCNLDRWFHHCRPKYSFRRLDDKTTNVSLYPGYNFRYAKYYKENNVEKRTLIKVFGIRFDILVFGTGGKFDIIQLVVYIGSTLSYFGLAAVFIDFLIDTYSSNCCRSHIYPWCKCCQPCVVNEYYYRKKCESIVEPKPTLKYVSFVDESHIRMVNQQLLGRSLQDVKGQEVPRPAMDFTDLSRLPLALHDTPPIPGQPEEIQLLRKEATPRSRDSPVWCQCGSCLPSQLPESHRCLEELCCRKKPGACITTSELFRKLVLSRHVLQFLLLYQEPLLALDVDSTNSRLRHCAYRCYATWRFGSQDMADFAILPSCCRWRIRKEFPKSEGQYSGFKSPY
- Assay Summary: P2X7 antagonism in human peripheral blood mononuclear cells (PBMCs), IL-1β release (LPS + Bz-ATP, ELISA)
- Assay type: cell-based
- Recorded Conditions: P2X7, 10 μM test compound, LPS 30 ng/ml + Bz-ATP 0.5 mM, read-out: PBMC @10 μM (% control)
Property Label: remaining activity at 10 µM (%)
Provide the reading as a plain figure in %.

> print(dat)
                                   molecule  numeric.result
1  Cc1nc(-c2ccc(F)cc2)c2c(n1)[C@@H]1CCC[C@H](C2)N1C(=O)c1ccc(F)cc1Cl            84.8
2  Cc1nc(-c2ncccn2)c2c(n1)[C@H]1CCC[C@@H](C2)N1C(=O)c1ccnc(C(F)(F)F)c1Cl           -16.1
3  Cc1nc(-c2ccn[nH]2)c2c(n1)C1CCCC(C2)N1C(=O)c1cccc(Cl)c1Cl (centres unmarked)             3.3
4  Cc1nc(-c2ccn[nH]2)c2c(n1)[C@@H]1CCC[C@H](C2)N1C(=O)c1ccc(Cl)cc1Cl            76.5
5  Cc1nc(-c2cnn(C)c2)c2c(n1)[C@H]1CCC[C@@H](C2)N1C(=O)c1cccc(C(F)(F)F)c1Cl            -3.7

Look at this molecule and give its reported remaining activity at 10 µM. Cc1nc(-c2cnn(C)c2)c2c(n1)[C@H]1CCC[C@@H](C2)N1C(=O)c1ccc(Cl)cc1Cl
76.2

What does the data say about its remaining activity at 10 µM? Entry: Cc1nc(-c2ccnn2C)c2c(n1)[C@H]1CCC[C@@H](C2)N1C(=O)c1cccc(C(F)(F)F)c1Cl
-2.9

Given Cc1nc(-c2cnn(C)c2)c2c(n1)[C@H]1CCC[C@@H](C2)N1C(=O)c1ccnc(C(F)(F)F)c1F , state its recorded remaining activity at 10 µM.
13.3
